Each recorded value in this set is attributed to patent US8932597B2.

Tested on: anti-M2 human monoclonal antibody Z3G1
Type: binding
PROPERTY LABEL: Signal (peptides that bind to Z3G1)
// no unit string in output, number only

Examples from the recorded data:
What value of measured Signal (peptides that bind to Z3G1) is listed for 448 (SLLTEVETPIRNEWGCRCNDSS; epitope peptide) [compound 448] ?
2325

What does the data say about its Signal (peptides that bind to Z3G1)? Entry: 289 (MSLCTEVGMSLCTEV; epitope peptide) [compound 289]
1093

Others:
Reported Signal (peptides that bind to Z3G1), substance 421 (SLLTEVETPIRNEWGCRCNDSED; epitope peptide) [compound 421] : ____
2527

Entry 1479 (CTEVETPIRNLLTEVETPICEVETPIRNE; epitope peptide; MISC_FEATURE (1)..(1): C is an attachment site for a CLIP; MISC_FEATURE (10)..(10): N is an attachment site for a CLIP; MISC_FEATURE (11)..(11): L is an attachment site for a CLIP; MISC_FEATURE (29)..(29): E is an attachment site for a CLIP) [compound 1479] has what Signal (peptides that bind to Z3G1)?
1627

# Signal (peptides that bind to Z3G1) lookup, item 1444 (CEVETPIRNELLTEVETPICLTEVETPIR; epitope peptide; MISC_FEATURE (1)..(1): C is an attachment site for a CLIP; MISC_FEATURE (10)..(10): E is an attachment site for a CLIP; MISC_FEATURE (11)..(11): L is an attachment site for a CLIP; MISC_FEATURE (29)..(29): R is an attachment site for a CLIP) [compound 1444]
2000

What value of Signal (peptides that bind to Z3G1) has been recorded for this entry: 1252 (MELLTEVETPIRNEWGCRCN; epitope peptide) [compound 1252]
2679

Requested field: Signal (peptides that bind to Z3G1). Item: 1399 (SLLTEVETPIRNECG; epitope peptide) [compound 1399]
1545

Need Signal (peptides that bind to Z3G1) of 1382 (CLLTEVETCIRNEWG; epitope peptide) [compound 1382] , thanks.
2296

Need Signal (peptides that bind to Z3G1), item 394 (SLLTEVETPIRNEWGCRCNMSSD; epitope peptide) [compound 394]
2574

Fill blank: measured Signal (peptides that bind to Z3G1) of the substance 1364 (SLLCEVETPCRNE; epitope peptide) [compound 1364] is ____.
2035

What Signal (peptides that bind to Z3G1) value was documented for this substance, 1320 (MCLLTEVETPCRNE; epitope peptide) [compound 1320] ?
2404

Please report the recorded Signal (peptides that bind to Z3G1) for 434 (SLLTEVETPIRNEWGCRCNDSYD; epitope peptide) [compound 434] .
2479

Could you share which Signal (peptides that bind to Z3G1) value was measured for 403 (SLLTEVETPIRNEWGCRCNDCSD; epitope peptide) [compound 403] ?
2318

Which Signal (peptides that bind to Z3G1) reading was recorded for the substance 1255 (MHLLTEVETPIRNEWGCRCN; epitope peptide) [compound 1255] ?
2449

====

System: HuM2e antibody 23K12
Type: binding, human
PROPERTY LABEL: Signal (peptides that bind to 23K21 and 8I10)
Provide a numeric answer; units are not to be included.

Illustrative cases are given below, each with its answer.
Requested field: Signal (peptides that bind to 23K21 and 8I10). Item: 326 (SLLTEVETPIRNEWGCRCNDSSD; epitope peptide) [compound 326]
1749

Field request: Signal (peptides that bind to 23K21 and 8I10) | item: 512 (SLLTEVETPIRNQWGCRCNDSSD; epitope peptide) [compound 512]
1039

Give the measured Signal (peptides that bind to 23K21 and 8I10) of 432 (SLLTEVETPIRNEWGCRCNDSVD; epitope peptide) [compound 432] .
728

Consider the substance shown here: 574 (CLLTEVGSLLTEC; epitope peptide) [compound 574] What is its recorded Signal (peptides that bind to 23K21 and 8I10)?
866

Name the reported Signal (peptides that bind to 23K21 and 8I10) value associated with the substance 385 (CSLLTEVGCLCTCV; epitope peptide) [compound 385]
1375

New cases:
If you can, please state the reported Signal (peptides that bind to 23K21 and 8I10) value of 336 (SLLCEVGSLLTEV; epitope peptide) [compound 336] .
1674

What does the data say about its Signal (peptides that bind to 23K21 and 8I10)? Entry: 374 (SLLTECGCSLLTEC; epitope peptide) [compound 374]
1451

Give the measured Signal (peptides that bind to 23K21 and 8I10) of 690 (SLLTEVHTPIRNEWGCRCNDSSD; epitope peptide) [compound 690] .
722

Which Signal (peptides that bind to 23K21 and 8I10) is listed for 514 (SLLTEGETPIRNEWGCRCNDSSD; epitope peptide) [compound 514] ?
1029

# lookup: Signal (peptides that bind to 23K21 and 8I10) of 698 (SLLTEVETPIRDEWGCRCNDSSD; epitope peptide) [compound 698]
716

Could you share which Signal (peptides that bind to 23K21 and 8I10) value was measured for 401 (SLLTEVETPIRNEWGCRCNWSSD; epitope peptide) [compound 401] ?
999

Reported Signal (peptides that bind to 23K21 and 8I10) for 379 (SLCTEVGCSCLCEV; epitope peptide) [compound 379] : what is it?
1421

Suppose we examine the substance 709 (SLLTEVLTPIRNEWGCRCNDSSD; epitope peptide) [compound 709] ; what Signal (peptides that bind to 23K21 and 8I10) value has been reported?
707

Which value of Signal (peptides that bind to 23K21 and 8I10) has been reported for 523 (SLLTEFETPIRNEWGCRCNDSSD; epitope peptide) [compound 523] in the records?
1009

====

System: HuM2e antibody 23K12
Type: binding, human
PROPERTY LABEL: Signal (peptides that bind to 23K21 and 8I10)
Could you keep your reply to the number by itself?

Example entries begin here.
Which Signal (peptides that bind to 23K21 and 8I10) is reported for this substance? 349 (SLATEVETPIRNEWGCRCNDSSD; epitope peptide) [compound 349]
1583

# input substance: 650 (SLLTEVETPVRNEWGCRCNDSSD; epitope peptide) [compound 650] ; wanted: its Signal (peptides that bind to 23K21 and 8I10)
758

Entry 623 (SLLTEVETCIRNEWGCRCNDSSD; epitope peptide) [compound 623] : reported Signal (peptides that bind to 23K21 and 8I10) = ?
800

For the substance 315 (MCLCTCVGCSLLTEC; epitope peptide) [compound 315] , what Signal (peptides that bind to 23K21 and 8I10) is on record?
1823

For the substance 426 (SLLTEVETPIRNEWGCRCNDSLD; epitope peptide) [compound 426] , what Signal (peptides that bind to 23K21 and 8I10) is on record?
779

Next:
Recorded Signal (peptides that bind to 23K21 and 8I10) for 330 (SLLTEVETPIRNEWGCRCNDYSD; epitope peptide) [compound 330] , please?
1694

Fill in the blank: the reported Signal (peptides that bind to 23K21 and 8I10) of 395 (SLLTEVETPIRNEWGCRCNNSSD; epitope peptide) [compound 395] is ____.
926

Sample 663 (MCLCTCVGMSLLTEV; epitope peptide) [compound 663] — what was its Signal (peptides that bind to 23K21 and 8I10)?
746

// query Signal (peptides that bind to 23K21 and 8I10) value for entry 433 (SLLTEVETPIRNEWGCRCNDSWD; epitope peptide) [compound 433]
971

====

System: anti-M2 human monoclonal antibody Z3G1
Type: binding
PROPERTY LABEL: Signal (peptides that bind to Z3G1)
Please give only the number in your answer, with no unit.

Past entries and their recorded results:
What measured Signal (peptides that bind to Z3G1) goes with 619 (SLLTEVETPIRNEWGCRCNASSD; epitope peptide) [compound 619] ?
2454

Request the reported Signal (peptides that bind to Z3G1) associated with 1496 (CEVETPIRNELLTEVETPICVETPIRNEW; epitope peptide; MISC_FEATURE (1)..(1): C is an attachment site for a CLIP; MISC_FEATURE (10)..(10): E is an attachment site for a CLIP; MISC_FEATURE (11)..(11): L is an attachment site for a CLIP; MISC_FEATURE (29)..(29): W is an attachment site for a CLIP) [compound 1496]
1625

Sample 1258 (MLLLTEVETPIRNEWGCRCN; epitope peptide) [compound 1258] — what was its Signal (peptides that bind to Z3G1)?
2091

I'd like to know its Signal (peptides that bind to Z3G1). The substance in question is 1371 (SLLCEVETPIRNE; epitope peptide) [compound 1371]
2511

Continuing:
Which Signal (peptides that bind to Z3G1) value is on record for 1343 (CSCLCEVGMSLLCEV; epitope peptide) [compound 1343] ?
1945

Please report the recorded Signal (peptides that bind to Z3G1) for 1253 (MFLLTEVETPIRNEWGCRCN; epitope peptide) [compound 1253] .
1707

# get_value(readout='Signal (peptides that bind to Z3G1)', item= 1357 (CLLTEVETCIRNE; epitope peptide) [compound 1357] )
1661

So what's the measured Signal (peptides that bind to Z3G1) for this one? 1327 (MSLLCEVETPICNE; epitope peptide) [compound 1327]
2704

Requested read-out: Signal (peptides that bind to Z3G1). Entry: 399 (SLLTEVETPIRNEWGCRCNTSSD; epitope peptide) [compound 399]
2483

Return reported Signal (peptides that bind to Z3G1); argument: 287 (MSLLTEVGMSLLTEV; epitope peptide) [compound 287]
2878

Please report the recorded Signal (peptides that bind to Z3G1) for 663 (MCLCTCVGMSLLTEV; epitope peptide) [compound 663] .
2509

Data request, read-out Signal (peptides that bind to Z3G1), for 356 (SLLTEVETPIRNEWGCRCNDSDD; epitope peptide) [compound 356]
2181

Consider the substance shown here: 1281 (MSLLEEVETPIRNEWGCRCN; epitope peptide) [compound 1281] What is its recorded Signal (peptides that bind to Z3G1)?
2805

Reported Signal (peptides that bind to Z3G1) for 1381 (CLLTEVETPCRNEWG; epitope peptide) [compound 1381] : what is it?
2074

Reported Signal (peptides that bind to Z3G1), substance 1329 (MSLLCEVETCIRNE; epitope peptide) [compound 1329] : ____
2589

State the recorded Signal (peptides that bind to Z3G1) for this entry: 694 (SLLTEVETPIRNEWGCRCNESSD; epitope peptide) [compound 694]
2282
